- Test system: STAT3
- ASSAY OVERVIEW: STAT3 reporter gene assay (luciferase), LNCaP stable cell line pSTAT3-TA-luc, IL-6 stimulation
- Assay type: cell-based, human
- ASSAY CONTEXT: Homo sapiens
Below, each entry is listed alongside its reported IC50.
Mention the unit after the number when you answer.

Example results:
CC(C)(c1ccc(Cl)cc1)c1cc(NC(=O)c2cc3cc(C(C)(C)S(C)(=O)=O)ccc3s2)[nH]n1; 0.14 µM
COc1cc(OC(F)(F)F)cc(C(C)(C)c2cc(Cl)cc(NC(=O)c3cc4cc(C(C)(C)S(C)(=O)=O)ccc4s3)n2)c1; 0.0051 µM

The recorded IC50 for entry CC(C)(c1ccc2sc(C(=O)Nc3cc(Cl)cc(Oc4ccc(Cl)cn4)c3)cc2c1)S(C)(=O)=O equals 0.08 µM

The recorded IC50 for entry CC(C)(c1ccc2sc(C(=O)Nc3cc(Cl)nc(Oc4ccc(Cl)cc4)n3)cc2c1)S(C)(=O)=O equals 0.39 µM
